Target: BRAF (Homo sapiens, UniProt P15056)
Construct: purchased Invitrogen
Sequence (P15056 whole entry): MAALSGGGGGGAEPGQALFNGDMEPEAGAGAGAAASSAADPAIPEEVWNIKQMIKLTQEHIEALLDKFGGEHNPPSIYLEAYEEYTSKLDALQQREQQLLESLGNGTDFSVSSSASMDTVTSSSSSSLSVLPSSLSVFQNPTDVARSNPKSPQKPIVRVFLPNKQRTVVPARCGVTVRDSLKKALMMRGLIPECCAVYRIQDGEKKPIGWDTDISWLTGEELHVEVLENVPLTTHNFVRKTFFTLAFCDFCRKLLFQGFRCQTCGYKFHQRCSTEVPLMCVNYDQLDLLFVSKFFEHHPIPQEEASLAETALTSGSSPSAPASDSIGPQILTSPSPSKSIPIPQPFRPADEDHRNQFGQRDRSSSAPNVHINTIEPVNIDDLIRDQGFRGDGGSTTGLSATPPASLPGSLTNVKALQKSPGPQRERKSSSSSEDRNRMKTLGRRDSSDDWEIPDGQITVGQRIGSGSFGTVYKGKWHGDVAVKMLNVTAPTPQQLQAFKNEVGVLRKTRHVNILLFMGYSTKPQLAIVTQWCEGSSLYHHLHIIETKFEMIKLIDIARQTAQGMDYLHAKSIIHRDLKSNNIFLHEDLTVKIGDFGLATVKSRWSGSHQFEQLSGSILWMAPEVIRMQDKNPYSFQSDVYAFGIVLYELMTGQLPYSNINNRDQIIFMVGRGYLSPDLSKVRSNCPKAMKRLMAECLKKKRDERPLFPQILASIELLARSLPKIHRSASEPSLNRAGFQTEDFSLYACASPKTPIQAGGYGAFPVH
Experiment: In vitro kinase assay (Z'-LYTE), BRAF
Type: biochemical
Conditions: read-out: % of inhibition of the kinase compared to the control
Protocol: 1) In Vitro Kinase Assays (Table 10 to Table 21) The inhibitory activity of the compounds on several kinases including BRAF, EGFR (ErbB1), EGFR (ErbB1) T790M L858R, FGFR2, KDR (VEGFR2), PDGFRA (PDGFR alpha), SRC and other was evaluated by Invitrogen using the Z′-LYTE® technology. Briefly, the Z′-LYTE® biochemical assay employs a fluorescence-based, coupled-enzyme format and is based on the differential sensitivity of phosphorylated and non-phosphorylated peptides to proteolytic cleavage. […]
recorded endpoint: inhibition at 0.1 µM

compound	recorded endpoint	val
CC(=O)c1cc2cc(NCc3cc(NC(=O)c4ccc(C(F)(F)F)nc4)ccc3C)cnc2[nH]1	inhibition at 0.1 µM	< 50%
CC(=O)c1cc2cc(NC(=O)c3cc(NC(=O)c4ccc(CN5CCC(N(C)C)C5)c(C(F)(F)F)c4)ccc3C)cnc2[nH]1 (stereo not drawn)	inhibition at 0.1 µM	< 50%
CC(=O)c1cc2cc(NCc3cccc(NC(=O)c4ccc(CN5CCN(C)CC5)c(C(F)(F)F)c4)c3)cnc2[nH]1	inhibition at 0.1 µM	< 50%
CC(=O)c1cc2cc(NCc3cc(NC(=O)c4cccc(C(F)(F)F)c4)ccc3C)cnc2[nH]1	inhibition at 0.1 µM	≥ 50%
Cc1ccc(NC(=O)c2ccc(CN3CCN(C)CC3)cc2)cc1CNc1cnc2[nH]c(C(=O)O)cc2c1	inhibition at 0.1 µM	< 50%
CNC(=O)c1cc2cc(NCc3cc(NC(=O)c4ccc(CN5CCN(C)CC5)c(C(F)(F)F)c4)ccc3C)cnc2[nH]1	inhibition at 0.1 µM	≥ 50%
Cc1ccc(NC(=O)c2ccc(CN3CCC(N(C)C)C3)c(C(F)(F)F)c2)cc1CNc1cnc2[nH]c(C(=O)O)cc2c1 (stereo not drawn)	inhibition at 0.1 µM	< 50%
CC(=O)c1cc2cc(NCc3cc(NC(=S)Nc4cccc(C(F)(F)F)c4)ccc3C)cnc2[nH]1	inhibition at 0.1 µM	< 50%
CC(=O)c1cc2cc(NCc3cc(NC(=O)c4ccc5[nH]ccc5c4)ccc3C)cnc2[nH]1	inhibition at 0.1 µM	≥ 50%
CC(=O)c1cc2cc(NCc3cc(NC(=O)c4ccc(CN5CC[C@H](N(C)C)C5)c(C(F)(F)F)c4)ccc3C)cnc2[nH]1	inhibition at 0.1 µM	≥ 50%
CC(=O)c1cc2cc(NCc3cc(NS(=O)(=O)c4cccc(C(F)(F)F)c4)ccc3C)cnc2[nH]1	inhibition at 0.1 µM	< 50%
CC(=O)c1cc2cc(NCc3cc(NC(=O)c4ccc(CN5CCN(C)CC5)cc4)ccc3C)cnc2[nH]1	inhibition at 0.1 µM	< 50%
CNC(=O)c1cc2cc(NCc3cc(NC(=O)c4ccc(CN5CC[C@H](N(C)C)C5)c(C(F)(F)F)c4)ccc3C)cnc2[nH]1	inhibition at 0.1 µM	≥ 50%
CC(=O)c1cc2cc(NCc3cc(NC(=O)c4cc(-n5cnc(C)c5)cc(C(F)(F)F)c4)ccc3C)cnc2[nH]1	inhibition at 0.1 µM	≥ 50%
CC(=O)c1cc2cc(NC(=O)c3cc(NC(=O)c4ccc(CN5CCN(C)CC5)cc4)ccc3C)cnc2[nH]1	inhibition at 0.1 µM	< 50%
